- System: GOTO (Neuroblastoma)
- protocol.notes: Bliss excess, mean over the matrix (fraction); higher = more synergy
Decide by Bliss excess: equal to or exceeding -0.02 means 1.0, less means 0.0.

Example results:
{"compound": "COc1cccc(OCCCN)c1-c1cc(Nc2cnc(C#N)cn2)n[nH]1 [Prexasertib] + C[C@@H]1COCCN1C2=NC(=NC(=C2)C3(CC3)[S@](=N)(=O)C)C4=C5C=CNC5=NC=C4 [AZD6738] (first compound max 1 µM, 7x7, partner max 10 µM)", "label.value": 0.0}
{"compound": "CC1(C)CCC(CN2CCN(c3ccc(C(=O)NS(=O)(=O)c4ccc(NCC5CCOCC5)c([N+](=O)[O-])c4)c(Oc4cnc5[nH]ccc5c4)c3)CC2)=C(c2ccc(Cl)cc2)C1 [Venetoclax] + COc1cc(Nc2ncc3c(n2)-c2ccc(Cl)cc2C(c2c(F)cccc2OC)=NC3)ccc1C(=O)O [Alisertib] (first compound max 1 µM, 7x7, partner max 10 µM)", "label.value": 0.0}
{"compound": "Cc1nc(Nc2ncc(C(=O)Nc3c(C)cccc3Cl)s2)cc(N2CCN(CCO)CC2)n1 [Dasatinib] + CC(=O)Nc1cccc(-n2c(=O)n(C3CC3)c(=O)c3c(Nc4ccc(I)cc4F)n(C)c(=O)c(C)c32)c1 [Trametinib] (first compound max 2 µM, 7x7, partner max 1 µM)", "label.value": 0.0}
{"compound": "CN(C)CCCOc1ccc(-c2ccc3ncc4c(c3c2)n(C2CCOCC2)c(=O)n4C)cn1 [AZD0156] + C=CCn1c(=O)c2cnc(Nc3ccc(N4CCN(C)CC4)cc3)nc2n1-c1cccc(C(C)(C)O)n1 [AZD1775] (first compound max 1 µM, partner max 1 µM)", "label.value": 1.0}
{"compound": "Cc1c2c(nn1C)CSCc1cc(n(C)n1)CSc1cc(c3ccccc3c1)OCCCc1c(C(=O)O)n(C)c3c-2c(Cl)ccc13 [AZD5991] + CCN(CCO)CCCOc1ccc2c(Nc3cc(CC(=O)Nc4cccc(F)c4)[nH]n3)ncnc2c1 [AZD2811] (first compound max 1 µM, 7x7, partner max 1 µM)", "label.value": 0.0}

Prompt: Kindly determine if Bliss excess recorded for COc1cccc(OCCCN)c1-c1cc(Nc2cnc(C#N)cn2)n[nH]1 [Prexasertib] + O=C(c1cc(Cc2n[nH]c(=O)c3ccccc23)ccc1F)N1CCN(C(=O)C2CC2)CC1 [Olaparib] (first compound max 1 µM, 7x7, partner max 10 µM) is above or exactly -0.02.
Completion: 0.0

Prompt: Try this compound too: CC1(C)CCC(CN2CCN(c3ccc(C(=O)NS(=O)(=O)c4ccc(NCC5CCOCC5)c([N+](=O)[O-])c4)c(Oc4cnc5[nH]ccc5c4)c3)CC2)=C(c2ccc(Cl)cc2)C1 [Venetoclax] + C[C@@H](Nc1cc(F)cc(F)c1)c1cc(C(=O)N(C)C)cc2c(=O)cc(N3CCOCC3)oc12 [AZD8186] (first compound max 1 µM, 7x7, partner max 3 µM)
Completion: 0.0

* * *

- Test system: TGBC11TKB (Gastric Carcinoma)
- protocol.notes: combination Emax (second highest fraction inhibited in the dose matrix, 72 h); higher = more inhibition; extreme values may be limits of the assay
For each entry below, report its combination Emax value.
Give bare numbers.

{"compound": "COc1cc2c(cc1OCCCCCOc1cc3c(cc1OC)C(=O)N1C=C(C)C[C@H]1C=N3)N=C[C@@H]1CC(C)=CN1C2=O [SG3199] + O=C(c1cc(Cc2n[nH]c(=O)c3ccccc23)ccc1F)N1CCN(C(=O)C2CC2)CC1 [Olaparib] (first compound max 0.001 µM, 7x7, partner max 10 µM)", "combination Emax": 0.3}
{"compound": "CN(CCO)CC[C@H](CSc1ccccc1)Nc1ccc(S(=O)(=O)NC(=O)c2ccc(N3CCC([C@@H](O)c4ccccc4-c4ccc(Cl)cc4)CC3)cc2)cc1S(=O)(=O)C(F)(F)F [AZD4320] + C=CCn1c(=O)c2cnc(Nc3ccc(N4CCN(C)CC4)cc3)nc2n1-c1cccc(C(C)(C)O)n1 [AZD1775] (first compound max 1 µM, partner max 1 µM)", "combination Emax": 0.964}

Prompt: Fill in the recorded combination Emax for this compound, with TGBC11TKB (Gastric Carcinoma) as test system: CCN(CCO)CCCOc1ccc2c(Nc3cc(CC(=O)Nc4cccc(F)c4)[nH]n3)ncnc2c1 [AZD2811] + C=CCn1c(=O)c2cnc(Nc3ccc(N4CCN(C)CC4)cc3)nc2n1-c1cccc(C(C)(C)O)n1 [AZD1775] (first compound max 1 µM, partner max 1 µM)
Completion: 0.818

* * *

- Test system: NB7 (Neuroblastoma)
- protocol.notes: Bliss excess, mean over the matrix (fraction); higher = more synergy
For each entry below, report its Bliss excess value.
Numbers only.

{"compound": "CC1(C)CCC(CN2CCN(c3ccc(C(=O)NS(=O)(=O)c4ccc(NCC5CCOCC5)c([N+](=O)[O-])c4)c(Oc4cnc5[nH]ccc5c4)c3)CC2)=C(c2ccc(Cl)cc2)C1 [Venetoclax] + Cn1cnc2c(F)c(Nc3ccc(Br)cc3Cl)c(C(=O)NOCCO)cc21 [Selumetinib] (first compound max 1 µM, 7x7, partner max 3 µM)", "tested.target": "NB7 (Neuroblastoma)", "Bliss excess": -0.0252}

Moving on to another compound below.
Prompt: Query: Bliss excess; subject: CC(=O)c1c(C)c2cnc(Nc3ccc(N4CCNCC4)cn3)nc2n(C2CCCC2)c1=O [Palbociclib] + Cn1cnc2c(F)c(Nc3ccc(Br)cc3Cl)c(C(=O)NOCCO)cc21 [Selumetinib] (first compound max 10 µM, 7x7, partner max 10 µM)
Completion: 0.0136

* * *

- Test system: KLE (Endometrial Carcinoma)
- protocol.notes: Bliss excess, mean over the matrix (fraction); higher = more synergy
Decide by Bliss excess: equal to or exceeding -0.03 means Yes, less means No.

Example results:
{"compound": "CC(=O)Nc1cccc(-n2c(=O)n(C3CC3)c(=O)c3c(Nc4ccc(I)cc4F)n(C)c(=O)c(C)c32)c1 [Trametinib] + Cc1nc(-c2cn3c(n2)-c2ccc(-c4cnn(C(C)(C)C(N)=O)c4)cc2OCC3)n(C(C)C)n1 [Taselisib] (first compound max 1 µM, 7x7, partner max 10 µM)", "label.value": "No"}
{"compound": "CC1(C)CCC(CN2CCN(c3ccc(C(=O)NS(=O)(=O)c4ccc(NCC5CCOCC5)c([N+](=O)[O-])c4)c(Oc4cnc5[nH]ccc5c4)c3)CC2)=C(c2ccc(Cl)cc2)C1 [Venetoclax] + CN(C)CCCOc1ccc(-c2ccc3ncc4c(c3c2)n(C2CCOCC2)c(=O)n4C)cn1 [AZD0156] (first compound max 1 µM, 7x7, partner max 1 µM)", "label.value": "No"}
{"compound": "CC1(C)CCC(CN2CCN(c3ccc(C(=O)NS(=O)(=O)c4ccc(NCC5CCOCC5)c([N+](=O)[O-])c4)c(Oc4cnc5[nH]ccc5c4)c3)CC2)=C(c2ccc(Cl)cc2)C1 [Venetoclax] + C[C@@H](Nc1cc(F)cc(F)c1)c1cc(C(=O)N(C)C)cc2c(=O)cc(N3CCOCC3)oc12 [AZD8186] (first compound max 1 µM, 7x7, partner max 3 µM)", "label.value": "Yes"}
{"compound": "CC(=O)c1c(C)c2cnc(Nc3ccc(N4CCNCC4)cn3)nc2n(C2CCCC2)c1=O [Palbociclib] + CN(CC[C@H](CSC1=CC=CC=C1)NC2=C(C=C(C=C2)S(=O)(=O)NC(=O)C3=CC=C(C=C3)N4CCC(CC4)[C@H](C5=CC=CC=C5C6=CC=C(C=C6)Cl)O)S(=O)(=O)C(F)(F)F)CCO [AZD4320] (first compound max 10 µM, 7x7, partner max 1 µM)", "label.value": "Yes"}
{"compound": "Cc1c2c(nn1C)CSCc1cc(n(C)n1)CSc1cc(c3ccccc3c1)OCCCc1c(C(=O)O)n(C)c3c-2c(Cl)ccc13 [AZD5991] + Cn1cnc2c(F)c(Nc3ccc(Br)cc3Cl)c(C(=O)NOCCO)cc21 [Selumetinib] (first compound max 1 µM, 7x7, partner max 3 µM)", "label.value": "No"}

Kindly review the next compound as well.
Prompt: Kindly determine if Bliss excess recorded for COc1cccc2c1C(=O)c1c(O)c3c(c(O)c1C2=O)C[C@@](O)(C(=O)CO)C[C@@H]3O[C@H]1C[C@H](N)[C@H](O)[C@H](C)O1 [Doxorubicin] + Cc1cc2ncnn2cc1Nc1ncc2c(n1)n(C1CCOCC1)c(=O)n2C [AZD7648] (first compound max 1 µM, 7x7, partner max 10 µM) is above or exactly -0.03.
Completion: Yes

* * *

- Tested on: HuP-T3 (Pancreatic Carcinoma)
- protocol.notes: combination Emax (second highest fraction inhibited in the dose matrix, 72 h); higher = more inhibition; extreme values may be limits of the assay
For each entry below, report its combination Emax value.
Numbers only.

See these solved cases before continuing.
{"compound": "Cc1nc(Nc2ncc(C(=O)Nc3c(C)cccc3Cl)s2)cc(N2CCN(CCO)CC2)n1 [Dasatinib] + CC(=O)Nc1cccc(-n2c(=O)n(C3CC3)c(=O)c3c(Nc4ccc(I)cc4F)n(C)c(=O)c(C)c32)c1 [Trametinib] (first compound max 2 µM, 7x7, partner max 1 µM)", "quantitative.result": 0.868}
{"compound": "CN(CCO)CC[C@H](CSc1ccccc1)Nc1ccc(S(=O)(=O)NC(=O)c2ccc(N3CCC([C@@H](O)c4ccccc4-c4ccc(Cl)cc4)CC3)cc2)cc1S(=O)(=O)C(F)(F)F [AZD4320] + C1CN(CCC1(C(=O)N[C@@H](CCO)C2=CC=C(C=C2)Cl)N)C3=NC=NC4=C3C=CN4 [Capivasertib] (first compound max 1 µM, 7x7, partner max 3 µM)", "quantitative.result": 0.118}

Prompt: Query: combination Emax; subject: Cc1c2c(nn1C)CSCc1cc(n(C)n1)CSc1cc(c3ccccc3c1)OCCCc1c(C(=O)O)n(C)c3c-2c(Cl)ccc13 [AZD5991] + C[C@@H]1COCCN1C2=NC(=NC(=C2)C3(CC3)[S@](=N)(=O)C)C4=C5C=CNC5=NC=C4 [AZD6738] (first compound max 1 µM, 7x7, partner max 10 µM)
Completion: 0.666
